The reported numbers originate from patent US9532961B2.

Assay Method Text: in vitro
Type: in vitro ADME
Assay Context: rat, serum
Experimental Readout: half-life at 6.25 mM

>>> print(df.to_string())
                                   molecule  readout_value
0  N[C@@H](CCC(=O)N[C@@H](CS)C(=O)O)C(=O)O [γ-Glu-Cys, γ-glutamyl cysteine]       11.3 min
